These measurements were taken from patent US5591749A.

- target: 5-HT3 (Mus musculus, UniProt P23979)
- Construct: NG108-15 Cells; endogenous in cells
- Sequence (P23979 24-489): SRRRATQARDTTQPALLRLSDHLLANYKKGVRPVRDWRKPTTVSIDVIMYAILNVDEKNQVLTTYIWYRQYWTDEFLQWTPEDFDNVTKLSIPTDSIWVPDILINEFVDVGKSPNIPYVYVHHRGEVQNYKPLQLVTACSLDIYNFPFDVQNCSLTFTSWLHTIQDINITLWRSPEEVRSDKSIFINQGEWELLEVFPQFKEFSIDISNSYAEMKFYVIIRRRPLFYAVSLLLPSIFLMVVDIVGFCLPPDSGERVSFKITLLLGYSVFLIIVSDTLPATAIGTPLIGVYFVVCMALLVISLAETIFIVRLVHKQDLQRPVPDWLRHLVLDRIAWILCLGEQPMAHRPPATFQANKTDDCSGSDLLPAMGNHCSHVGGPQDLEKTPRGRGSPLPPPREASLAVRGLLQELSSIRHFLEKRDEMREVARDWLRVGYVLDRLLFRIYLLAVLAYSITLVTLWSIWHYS
- protocol_details: 5-HT3 binding, NG108-15 cells
- Source text: 5-HT3 antagonism can be determined by the radioligand receptor binding assay as described herein and in the in vivo Bezold-Jarisch reflex procedure.
Structures can show the parent of a compound that is named as a salt.

- compound: "O=C(N[C@H]1[C@H]2C[C@@H]3CN(C2)C[C@@H]31)c1cc(Cl)cn2ccnc12 (relative stereo) [Example 9, monohydrochloride]"
  readout_unit: "nM"
  Ki: 64
- compound: "CN1[C@@H]2CC[C@H]1C[C@@H](NC(=O)c1cccn3ccnc13)C2 [Example 4, hydrochloride]"
  readout_unit: "nM"
  Ki: 416
- compound: "O=C(N[C@H]1[C@H]2C[C@@H]3CN(C2)C[C@@H]31)c1cccn2ccnc12 (relative stereo) [Example 10, hydrochloride]"
  readout_unit: "nM"
  Ki: 122

----------
- target: 5-HT3 receptor (Rattus norvegicus, UniProt P35563)
- Construct: Brain cortices are obtained from male rats and a membrane fraction prepared by standard techniques; from tissue; host or cells: rat brain cortex membranes
- Sequence (P35563 24-483): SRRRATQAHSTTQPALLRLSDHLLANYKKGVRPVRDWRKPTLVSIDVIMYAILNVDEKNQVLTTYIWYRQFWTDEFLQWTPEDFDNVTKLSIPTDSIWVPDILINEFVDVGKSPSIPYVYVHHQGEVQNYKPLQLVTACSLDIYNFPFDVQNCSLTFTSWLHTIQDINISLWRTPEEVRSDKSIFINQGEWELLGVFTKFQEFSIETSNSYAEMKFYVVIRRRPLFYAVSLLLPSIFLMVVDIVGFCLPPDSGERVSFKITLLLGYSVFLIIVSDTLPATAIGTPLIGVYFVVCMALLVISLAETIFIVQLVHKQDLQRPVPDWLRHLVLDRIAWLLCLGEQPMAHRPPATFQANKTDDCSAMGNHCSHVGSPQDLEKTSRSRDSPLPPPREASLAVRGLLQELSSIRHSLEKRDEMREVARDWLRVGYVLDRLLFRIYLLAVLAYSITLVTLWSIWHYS
- protocol_details: [3H]-GR65630 radioligand receptor binding assay, rat brain cortex membranes
- condition_set: 0.2 nM [3H]-GR65630
- Experimental: 5-HT3 antagonism can be determined by the radioligand receptor binding assay as described herein and in the in vivo Bezold-Jarisch reflex procedure. GR65630 binds to the 5-HT3 receptor. Brain cortices are obtained from male rats and a membrane fraction prepared by standard techniques. 0.04 mg of membrane prep is incubated with 0.2 nM [^3 H]-GR656630 for 60 minutes at 22° C. […] Membranes are filtered and washed 3 times and the filters are counted to determine [3H]-GR65630 specifically bound.* […]
measured_parameter: Hill Coefficient

- molecule: "c1ccc2nc(N3CCNCC3)ccc2c1"
  experimental_value: 0.86
- molecule: "COc1ccc2[nH]cc(C3=CCNCC3)c2c1"
  experimental_value: 1.0
- molecule: "CN1[C@@H]2CC[C@H]1C[C@@H](OC(=O)c1c[nH]c3ccccc13)C2"
  experimental_value: 1.0
- molecule: "COc1cc(N)c(Cl)cc1C(=O)NC1CN2CCC1CC2 (stereo not shown) [Zacopride]"
  experimental_value: 0.86
